All figures here come from the supplement of paper PMC12024529.

- System: HEK293 WT BDD-FVIII-Gluc
- measurementNotes: secreted FVIII-Gluc luciferase Z-score vs DMSO control; higher = more FVIII-Gluc secretion
- measurementConditions: 5 µM
# secreted FVIII-Gluc luciferase Z-score per record follows
testReadout: secreted FVIII-Gluc luciferase Z-score

>  <compound>
COc1c2occc2cc2ccc(=O)oc12

>  <assayedSystem>
HEK293 WT BDD-FVIII-Gluc

>  <testReadout>
secreted FVIII-Gluc luciferase Z-score

>  <measurement>
0.821

$$$$
>  <compound>
COc1ccc2c(c1OC)C(Cc1ccccc1)N1CCc3cc4c(cc3C1=C2)OCO4 (stereo unspecified)

>  <assayedSystem>
HEK293 WT BDD-FVIII-Gluc

>  <testReadout>
secreted FVIII-Gluc luciferase Z-score

>  <measurement>
0.115

$$$$
>  <compound>
COc1cc(CNC(=O)CCCC/C=C/C(C)C)ccc1O

>  <assayedSystem>
HEK293 WT BDD-FVIII-Gluc

>  <testReadout>
secreted FVIII-Gluc luciferase Z-score

>  <measurement>
-0.484

$$$$
>  <compound>
Cc1ccc(CC(Cc2nc3ccccc3[nH]2)c2nc3ccccc3[nH]2)cc1 (stereo unspecified)

>  <assayedSystem>
HEK293 WT BDD-FVIII-Gluc

>  <testReadout>
secreted FVIII-Gluc luciferase Z-score

>  <measurement>
0.284

$$$$
>  <compound>
COc1ccc2c(c1)[C@@]1(C)CCC[C@](C)(CO)C1CC2 (stereo partly specified)

>  <assayedSystem>
HEK293 WT BDD-FVIII-Gluc

>  <testReadout>
secreted FVIII-Gluc luciferase Z-score

>  <measurement>
0.437

$$$$
>  <compound>
NC(Cc1cnc[nH]1)C(=O)O (stereo unspecified)

>  <assayedSystem>
HEK293 WT BDD-FVIII-Gluc

>  <testReadout>
secreted FVIII-Gluc luciferase Z-score

>  <measurement>
0.443

$$$$

====

- System: HEK293 WT BDD-FVIII-Gluc
- measurementNotes: secreted FVIII-Gluc luciferase Z-score vs DMSO control; higher = more FVIII-Gluc secretion
- measurementConditions: 5 µM

>  <molecule>
C[C@H](CCC(=O)O)[C@H]1CC[C@H]2[C@@H]3CC[C@@H]4C[C@H](O)CC[C@]4(C)[C@H]3CC[C@]12C

>  <secreted FVIII-Gluc luciferase Z-score>
1.27

$$$$
>  <molecule>
OC[C@@H]1OC(O)[C@@H](O)[C@H](O)[C@H]1O[C@H]1O[C@H](CO)[C@@H](O)[C@H](O)[C@H]1O (stereo partly drawn)

>  <secreted FVIII-Gluc luciferase Z-score>
0.204

$$$$
>  <molecule>
COc1cc2cc(Oc3ccc4ccc(=O)oc4c3)c(=O)oc2cc1OC(C)=O

>  <secreted FVIII-Gluc luciferase Z-score>
0.744

$$$$
>  <molecule>
COc1ccc2[nH]c(=O)c3c(c2c1)OC(C)(C)C=C3

>  <secreted FVIII-Gluc luciferase Z-score>
-1.14

$$$$
>  <molecule>
Cc1cc(O)cc(O)c1

>  <secreted FVIII-Gluc luciferase Z-score>
0.642

$$$$
>  <molecule>
C/C=C(\C)C(=O)OC1CC2(C)OC2C(OC(C)=O)C2(C)CCC(O)(C(C)C)C12 (stereo not drawn)

>  <secreted FVIII-Gluc luciferase Z-score>
-0.754

$$$$
>  <molecule>
COc1c(O)cc2oc3cc(O)c(CC=C(C)C)c(O)c3c(=O)c2c1CC=C(C)C

>  <secreted FVIII-Gluc luciferase Z-score>
0.316

$$$$
>  <molecule>
CC(=O)Nc1nc2nc[nH]c2c(=O)[nH]1

>  <secreted FVIII-Gluc luciferase Z-score>
0.475

$$$$
>  <molecule>
CC1CC2(C)Oc3ccccc3C3OCC1(COC(=O)Nc1ccccc1)C(C)C32 (stereo not drawn)

>  <secreted FVIII-Gluc luciferase Z-score>
-0.945

$$$$
>  <molecule>
CC1CCC2[C@](C)(CO)C(O)CC[C@]2(C)C12CCC(CO)(CCO)O2 (stereo partly drawn)

>  <secreted FVIII-Gluc luciferase Z-score>
0.9

$$$$
>  <molecule>
C[C@H](CCC(=O)O)[C@H]1CC[C@H]2[C@@H]3[C@H](O)C[C@@H]4C[C@H](O)CC[C@]4(C)[C@H]3C[C@H](O)[C@]12C

>  <secreted FVIII-Gluc luciferase Z-score>
-0.337

$$$$
>  <molecule>
CCCCCCCCCCCC1=C(O)C(=O)C=C(O)C1=O

>  <secreted FVIII-Gluc luciferase Z-score>
0.529

$$$$
>  <molecule>
COc1ccc2c(c1OC)C(=O)O[C@@H]2[C@H]1c2c(cc3c(c2OC)OCO3)CCN1C

>  <secreted FVIII-Gluc luciferase Z-score>
-0.0362

$$$$
>  <molecule>
O=c1cc(-c2ccccc2)oc2c1ccc1ccccc12

>  <secreted FVIII-Gluc luciferase Z-score>
0.373

$$$$
>  <molecule>
COc1cc2c(C(=O)c3ccccc3)c3c4c(cc(OC)c(OC)c4c2cc1OC)CCN3C

>  <secreted FVIII-Gluc luciferase Z-score>
-1.18

$$$$
>  <molecule>
Cc1cn([C@H]2C[C@H](O)[C@@H](CO)O2)c(=O)[nH]c1=O

>  <secreted FVIII-Gluc luciferase Z-score>
0.713

$$$$
>  <molecule>
COc1cc2ccc(=O)oc2c(O)c1O

>  <secreted FVIII-Gluc luciferase Z-score>
0.185

$$$$
>  <molecule>
NC[C@@H]1O[C@H](O[C@H]2[C@@H](O)[C@H](O[C@@H]3[C@@H](O)[C@H](N)C[C@H](N)[C@H]3O[C@H]3O[C@H](CN)[C@@H](O)[C@H](O)[C@H]3N)O[C@@H]2CO)[C@H](N)[C@@H](O)[C@@H]1O

>  <secreted FVIII-Gluc luciferase Z-score>
0.572

$$$$
>  <molecule>
O=C1OC(=O)C2C3CCC(O3)C12 (stereo not drawn)

>  <secreted FVIII-Gluc luciferase Z-score>
-0.862

$$$$
>  <molecule>
CC1(C)CCC[C@@]2(C)C1CCC1(C)OC(=O)CC12 (stereo partly drawn)

>  <secreted FVIII-Gluc luciferase Z-score>
0.281

$$$$
>  <molecule>
O=C(O)CNC(=O)c1ccccc1

>  <secreted FVIII-Gluc luciferase Z-score>
1.07

$$$$
>  <molecule>
C=C[C@@]1(C)C=C2CC[C@@H]3[C@](C)(CCC[C@@]3(C)C(=O)O)[C@H]2CC1

>  <secreted FVIII-Gluc luciferase Z-score>
-0.481

$$$$
>  <molecule>
C[C@H]1C[C@]2(O[C@@H]2C)C(=O)O[C@@H]2CCN(C)C/C=C(/COC(=O)[C@]1(C)O)C2=O

>  <secreted FVIII-Gluc luciferase Z-score>
0.213

$$$$
>  <molecule>
COc1ccc2c(c1OC)C(=O)O[C@H]2[C@H]1c2c(cc3c(c2OC)OCO3)CCN1C

>  <secreted FVIII-Gluc luciferase Z-score>
0.932

$$$$
>  <molecule>
O=c1cc(-c2cccc(O)c2)oc2c(O)c(O)ccc12

>  <secreted FVIII-Gluc luciferase Z-score>
-0.194

$$$$
>  <molecule>
Nc1ncnc2c1ncn2[C@@H]1O[C@H](COP(=O)(O)OP(=O)(O)O)[C@@H](O)[C@H]1O

>  <secreted FVIII-Gluc luciferase Z-score>
0.0418

$$$$
>  <molecule>
C[C@H](O)[C@H](O)[C@@H](O)c1cnc2nc(N)[nH]c(=O)c2n1

>  <secreted FVIII-Gluc luciferase Z-score>
0.588

$$$$
>  <molecule>
OC[C@H]1O[C@@H](OC[C@H]2O[C@@H](O)[C@H](O)[C@@H](O)[C@@H]2O)[C@H](O)[C@@H](O)[C@@H]1O

>  <secreted FVIII-Gluc luciferase Z-score>
0.42

$$$$
>  <molecule>
CC(=O)Oc1cc(OC(C)=O)c2c(=O)cc(-c3ccc(OC(C)=O)c(OC(C)=O)c3)oc2c1

>  <secreted FVIII-Gluc luciferase Z-score>
0.33

$$$$
>  <molecule>
O=c1c2ccccc2oc2cc(O)c(C3COCC(CO)C(O)C(O)C3O)c(O)c12 (stereo not drawn)

>  <secreted FVIII-Gluc luciferase Z-score>
0.341

$$$$
>  <molecule>
Cc1c(C)c2c(c(C)c1OC(=O)CCC(=O)O)CC[C@@](C)(CCC[C@H](C)CCC[C@H](C)CCCC(C)C)O2

>  <secreted FVIII-Gluc luciferase Z-score>
0.648

$$$$
>  <molecule>
COc1ccc(-c2coc3cc(O)cc(O)c3c2=O)cc1

>  <secreted FVIII-Gluc luciferase Z-score>
0.185

$$$$
>  <molecule>
COC(=O)[C@H]1[C@H]2C[C@H]3c4[nH]c5ccccc5c4CCN3C[C@@H]2CC[C@@H]1O

>  <secreted FVIII-Gluc luciferase Z-score>
-1.15

$$$$
>  <molecule>
CC(=O)OC1CCC2(C)C(CCC3(C)C2C(=O)C=C2C4CC(C)(C(=O)OCCN5CCCCC5)CCC4(C)CCC23C)C1(C)C (stereo not drawn)

>  <secreted FVIII-Gluc luciferase Z-score>
0.64

$$$$
>  <molecule>
O=c1cc(-c2ccccc2O)oc2c1ccc1ccccc12

>  <secreted FVIII-Gluc luciferase Z-score>
0.301

$$$$
>  <molecule>
O=c1cc(-c2ccc(O)cc2O)oc2ccccc12

>  <secreted FVIII-Gluc luciferase Z-score>
0.498

$$$$
>  <molecule>
CC1(C)CC[C@]2(C(=O)O)CC[C@]3(C)C(=CCC4[C@@]5(C)CC[C@H](O)C(C)(C)C5[C@H](O)C[C@]43C)C2C1 (stereo partly drawn)

>  <secreted FVIII-Gluc luciferase Z-score>
0.207

$$$$
>  <molecule>
COc1cc([C@@H]2Oc3cc(C4Oc5cc(O)cc(O)c5C(=O)[C@H]4O)ccc3O[C@H]2CO)ccc1O (stereo partly drawn)

>  <secreted FVIII-Gluc luciferase Z-score>
0.0424

$$$$
